System: Bacillus anthracis
assayProcedure: Antimicrobial activity against Bacillus anthracis assessed as growth inhibition measured as turbidity
Type: functional
outcomeMeasure: MIC (µg/mL)
Record the value in µg/mL, omitting the unit from your answer.

Known MIC results, listed for orientation:
compound | targetEntity | MIC (µg/mL)
CCCC1c2ccccc2C=NN1C(=O)/C=C/c1cc(Cc2cnc(N)nc2N)cc(OC(=O)c2ccc(OC(F)(F)F)cc2)c1OC (racemic) | Bacillus anthracis | 8
CCCC1c2ccccc2C=NN1C(=O)/C=C/c1cc(Cc2cnc(N)nc2N)cc(OC(=O)c2ccc([N+](=O)[O-])cc2)c1OC (racemic) | Bacillus anthracis | 8
CCCC1c2ccccc2C=NN1C(=O)/C=C/c1cc(Cc2cnc(N)nc2N)cc(OCc2ccc(C(F)(F)F)cc2)c1OC (racemic) | Bacillus anthracis | 8

With those in mind, consider the next compound.
Request: Hello, I am looking for reported MIC with Bacillus anthracis for CCOc1c(/C=C/C(=O)N2N=Cc3ccccc3C2C=C(C)C)cc(Cc2cnc(N)nc2N)cc1OC (racemic) . Could you help?
Response: 0.5

----------
Test system: Bacillus anthracis
assayProcedure: Antimicrobial activity against Bacillus anthracis assessed as growth inhibition measured as turbidity
Assay type: functional
The entries below are paired with their reported MIC.

compound | targetEntity | MIC
CCCC1c2ccccc2C=NN1C(=O)/C=C/c1cc(C(=O)c2cnc(N)nc2N)cc(OC)c1OC (racemic) | Bacillus anthracis | > 128 µg/mL
CCCC1c2ccccc2C=NN1C(=O)/C=C/c1cc(Cc2cnc(N)nc2N)cc2c1OCO2 (racemic) | Bacillus anthracis | 32 µg/mL
CCCC1c2ccccc2C=NN1C(=O)/C=C/c1cc(Cc2cnc(N)nc2N)cc(OC(=O)c2ccccc2)c1OC (racemic) | Bacillus anthracis | 4 µg/mL

Request: If you can, please state the reported MIC value of CCCC1c2ccccc2C=NN1C(=O)/C=C/c1cc(Cc2cnc(N)nc2N)cc(OCC)c1OCC (racemic) .
Response: 4 µg/mL

Request: If you can, please state the reported MIC value of `COc1cc(Cc2cnc(N)nc2N)cc(OC)c1OC` .
Response: > 2050 µg/mL

----------
Tested on: Bacillus anthracis
assayProcedure: Antimicrobial activity against Bacillus anthracis assessed as growth inhibition measured as turbidity
Type: functional
outcomeMeasure: MIC (µg/mL)
Record the value in µg/mL, omitting the unit from your answer.

Known MIC results, listed for orientation:
compound | outcomeMeasure | readoutNumber
CCCC1c2ccccc2C=NN1C(=O)/C=C/c1cc(Cc2cnc(N)nc2N)cc(OC)c1OCC (racemic) | MIC | 2
CCCC1c2ccccc2C=NN1C(=O)/C=C/c1cc(Cc2cnc(N)nc2N)cc(OCc2ccc(F)cc2)c1OC (racemic) | MIC | 8
CCCOc1cc(Cc2cnc(N)nc2N)cc(/C=C/C(=O)N2N=Cc3ccccc3C2CCC)c1OC (racemic) | MIC | 4
CCCC1c2ccccc2C=NN1C(=O)/C=C/c1cc(Cc2cnc(N)nc2N)cc(OC)c1OCc1ccccc1 (racemic) | MIC | 4

Request: If you can, please state the reported MIC value of CCCC1c2ccccc2C=NN1C(=O)/C=C/c1cc(Cc2cnc(N)nc2N)cc(OC(=O)c2ccc(OC)cc2)c1OC (racemic) .
Response: 8

Request: If you can, please state the reported MIC value of CCOc1cc(Cc2cnc(N)nc2N)cc(/C=C/C(=O)N2N=Cc3ccccc3C2C=C(C)C)c1OCC (racemic) .
Response: 1
